The reported numbers originate from ChEMBL document CHEMBL2385079.

# experimental system: ORAI 1/2/3 (Homo sapiens, UniProt Q96D31+Q96SN7+Q9BRQ5)
# procedure text: Inhibition of ORAl1/2/3 in HEK293 cells assessed as inhibition of Cd2+ influx after 10 mins by FLIPR assay in presence of thapsigargin
# Assay type: cell-based
Item-by-item account of IC50
metric name: IC50 (µM)

molecule=O=C1C[NH2+][B-](c2ccccc2)(c2ccccc2)O1 experimental_system="ORAI 1/2/3 (Homo sapiens, UniProt Q96D31+Q96SN7+Q9BRQ5)" operator== value_observed=11
molecule="c1ccc([B-]2(c3ccccc3)OC[C@H]3CCC[NH+]32)cc1 (some centres not stated)" experimental_system="ORAI 1/2/3 (Homo sapiens, UniProt Q96D31+Q96SN7+Q9BRQ5)" operator== value_observed=10.1
molecule=COc1ccccc1B(O)c1ccccc1OC experimental_system="ORAI 1/2/3 (Homo sapiens, UniProt Q96D31+Q96SN7+Q9BRQ5)" operator== value_observed=11.8
molecule="Cc1ccc([B-]2(c3ccccc3)[NH2+]CCO2)s1 (configuration not stated)" experimental_system="ORAI 1/2/3 (Homo sapiens, UniProt Q96D31+Q96SN7+Q9BRQ5)" operator== value_observed=25.2
molecule=OC(c1ccccc1)c1ccccc1 experimental_system="ORAI 1/2/3 (Homo sapiens, UniProt Q96D31+Q96SN7+Q9BRQ5)" operator=> value_observed=500
molecule=OB(c1ccc(C(F)(F)F)cc1)c1ccc(C(F)(F)F)cc1 experimental_system="ORAI 1/2/3 (Homo sapiens, UniProt Q96D31+Q96SN7+Q9BRQ5)" operator== value_observed=9.5
molecule=FC(F)(F)c1ccc([B-]2(c3ccc(C(F)(F)F)cc3)[NH2+]CCO2)cc1 experimental_system="ORAI 1/2/3 (Homo sapiens, UniProt Q96D31+Q96SN7+Q9BRQ5)" operator== value_observed=3.2
molecule="c1ccc(-c2ccc([B-]3(c4ccccc4)[NH2+]CCO3)cc2)cc1 (configuration not stated)" experimental_system="ORAI 1/2/3 (Homo sapiens, UniProt Q96D31+Q96SN7+Q9BRQ5)" operator== value_observed=7.7
molecule=c1ccc([B-]2(c3ccccc3)[NH2+]CCS2)cc1 experimental_system="ORAI 1/2/3 (Homo sapiens, UniProt Q96D31+Q96SN7+Q9BRQ5)" operator== value_observed=44.6
molecule=c1ccc([B-]2(c3ccccc3)OCc3cccc[n+]32)cc1 experimental_system="ORAI 1/2/3 (Homo sapiens, UniProt Q96D31+Q96SN7+Q9BRQ5)" operator== value_observed=10.2
molecule=c1ccc(B(OB(c2ccccc2)c2ccccc2)c2ccccc2)cc1 experimental_system="ORAI 1/2/3 (Homo sapiens, UniProt Q96D31+Q96SN7+Q9BRQ5)" operator== value_observed=13.4
molecule="Ic1ccc([B-]2(c3ccccc3)[NH2+]CCO2)cc1 (configuration not stated)" experimental_system="ORAI 1/2/3 (Homo sapiens, UniProt Q96D31+Q96SN7+Q9BRQ5)" operator== value_observed=7.2

---

# experimental system: Transient receptor potential cation channel subfamily V member 6 (Homo sapiens, UniProt Q9H1D0)
# Sequence (Q9H1D0 whole entry): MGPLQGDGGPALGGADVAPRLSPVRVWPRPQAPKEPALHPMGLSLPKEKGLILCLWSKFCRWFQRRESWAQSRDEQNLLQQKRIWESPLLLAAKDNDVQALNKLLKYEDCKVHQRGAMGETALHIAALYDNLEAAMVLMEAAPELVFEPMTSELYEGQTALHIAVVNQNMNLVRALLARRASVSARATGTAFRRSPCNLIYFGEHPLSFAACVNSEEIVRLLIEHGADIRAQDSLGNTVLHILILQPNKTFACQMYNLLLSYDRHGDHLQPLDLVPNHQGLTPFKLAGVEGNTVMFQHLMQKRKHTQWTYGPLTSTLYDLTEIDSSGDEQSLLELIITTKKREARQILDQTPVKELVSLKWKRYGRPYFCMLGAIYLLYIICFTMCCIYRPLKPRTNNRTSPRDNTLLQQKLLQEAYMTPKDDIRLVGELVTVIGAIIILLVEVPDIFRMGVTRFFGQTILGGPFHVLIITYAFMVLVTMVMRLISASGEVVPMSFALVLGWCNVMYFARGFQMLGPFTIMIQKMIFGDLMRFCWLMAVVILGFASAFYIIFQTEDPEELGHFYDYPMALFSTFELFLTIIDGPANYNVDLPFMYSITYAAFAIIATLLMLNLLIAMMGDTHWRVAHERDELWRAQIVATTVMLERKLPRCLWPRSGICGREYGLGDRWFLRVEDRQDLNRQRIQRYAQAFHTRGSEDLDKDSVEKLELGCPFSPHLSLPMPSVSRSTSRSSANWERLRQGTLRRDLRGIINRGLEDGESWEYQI
# procedure text: Inhibition of human TRPV6 transfected in HEK293 cells assessed as inhibition of Ca2+ influx after 5 mins by FLIPR assay
# Type: cell-based
Item-by-item account of IC50
metric name: IC50 (µM)

compound=NCCOC(c1ccccc1)c1ccccc1 metric_name=IC50 operator== value_observed=159
compound="CCCCc1ccc([B-]2(c3ccccc3)[NH2+]CCO2)cc1 (stereo unspecified)" metric_name=IC50 operator== value_observed=14.3
compound=c1ccc([B-]2(c3ccccc3)[NH2+]CCS2)cc1 metric_name=IC50 operator== value_observed=127
compound="Fc1ccc([B-]2(c3ccccc3)[NH2+]CCO2)cc1 (stereo unspecified)" metric_name=IC50 operator== value_observed=18.8
compound=COc1ccccc1[B-]1(c2ccccc2OC)[NH2+]CCO1 metric_name=IC50 operator=> value_observed=500
compound=COc1ccccc1B(O)c1ccccc1OC metric_name=IC50 operator=> value_observed=500
